Assay: Toxicity study (ED50 orally and intraperitoneally, method of Miller and Tainter)
Settings: in vivo, po, per os, read-out: ED50 per os
Method: The most interesting compounds of the present invention were subjected to toxicity studies. The ED50 was determined orally and intraperitoneally and calculated by the method of MILLER and TAINTER (Proc. Soc. Exper. […]. 1944, 57, 261).
Counter-ions that a name gives are not always drawn.
Entries and their LD50 values follow.
measured endpoint: LD50 (mg/kg)

compound: CCOC(=O)[C@]1(c2ccc(Cl)c(Cl)c2)C[C@@H]1CN(C)C (relative stereo)
measured endpoint: LD50
value reported: 550
//
compound: CCOC(=O)[C@]1(c2cccc(Cl)c2)C[C@@H]1CN(C)C (relative stereo)
measured endpoint: LD50
value reported: 760
//
compound: CN(C)C[C@H]1C[C@]1(C(=O)OCc1ccccc1)c1ccccc1 (relative stereo)
measured endpoint: LD50
value reported: 1000
//
compound: CCOC(=O)[C@]1(c2ccc(Cl)cc2)C[C@@H]1CN(C)C (relative stereo) [Example 41, hydrochloride]
measured endpoint: LD50
value reported: 400
//
compound: COC(=O)[C@]1(c2ccc(N)cc2)C[C@@H]1CN(C)C (relative stereo)
measured endpoint: LD50
value reported: 420
//
compound: CCOC(=O)[C@]1(c2ccccc2)C[C@@H]1CN(C)CCc1ccccc1 (relative stereo)
measured endpoint: LD50
value reported: 1000
//
compound: COC(=O)[C@]1(c2ccc([N+](=O)[O-])cc2)C[C@@H]1CN(C)C (relative stereo)
measured endpoint: LD50
value reported: 1000
//
compound: CC(C)OC(=O)[C@]1(c2ccccc2)C[C@@H]1CN(C)C (relative stereo)
measured endpoint: LD50
value reported: 400
//
compound: CCOC(=O)[C@]1(c2ccc(OC)cc2)C[C@@H]1CN(C)C (relative stereo)
measured endpoint: LD50
value reported: 420
